Every entry's value here was drawn from paper PMC11274511.

- Tested on: HSV-1/L2(TK+)
- procedureText: microbe, parasite or virus in culture
- testParameters: Strain HSV-1/L2(TK+)
Entries annotated with measured SI (ratio of CC50 to IC50)
recordedEndpoint: SI (ratio of CC50 to IC50)

smilesEntry	reportedResult
CCCCSc1nc(-c2ccccc2)nn1[C@@H]1O[C@H](CO)[C@@H](O)[C@H]1O	4
O=C(CSc1nc(-c2ccccc2)nn1[C@@H]1O[C@H](CO)[C@@H](O)[C@H]1O)c1ccccc1	3
O=C(CSc1nnc[nH]1)c1ccccc1	6
CCCCSc1n[nH]c(-c2ccccc2)n1	3
O=C(CSc1ncn([C@@H]2O[C@H](CO)[C@@H](O)[C@H]2O)n1)c1ccccc1	>8
O=C(CSc1ncn([C@H]2C[C@H](O)[C@@H](CO)O2)n1)c1ccccc1	2
CCCCSc1nc(-c2ccccc2)nn1[C@H]1C[C@H](O)[C@@H](CO)O1	16
O=C(CSc1nc(-c2ccccc2)nn1[C@H]1C[C@H](O)[C@@H](CO)O1)c1ccccc1	2

###

- System: HSV-1/L2/R^ACV
- procedureText: microbe, parasite or virus in culture
- testParameters: Human alphaherpesvirus 1, Vero C1008, 48 h
- Description: Herpes simplex virus type 1 (HSV-1) strain L2 was obtained from the State’s collection of viruses at FSBI «N. F. Gamaleya National Research Centre for Epidemiology and Microbiology, Russian Ministry of Health, Russia» («D. I. Ivanovsky Institute of Virology» subdivision). Antiviral activity in vitro was measured by the method of the cytopathic effect (CPE) inhibition assay. […] Antiviral activity was assessed by determining of IC50 and IC95. […]
// classify: if (IC50 < 200 µM) label 1 else label 0

molecule	assignedLabel
NC(=O)c1ncn([C@@H]2O[C@H](CO)[C@@H](O)[C@H]2O)n1 [Ribavirin, reference compound]	label 0
O=C(CSc1nnc[nH]1)c1ccccc1	label 0
O=C(CSc1nc(-c2ccccc2)nn1[C@@H]1O[C@H](CO)[C@@H](O)[C@H]1O)c1ccccc1	label 0
O=C(CSc1ncn([C@H]2C[C@H](O)[C@@H](CO)O2)n1)c1ccccc1	label 0
CCCCSc1n[nH]c(-c2ccccc2)n1	label 1
O=C(CSc1ncn([C@@H]2O[C@H](CO)[C@@H](O)[C@H]2O)n1)c1ccccc1	label 0
CCCCSc1nc(-c2ccccc2)nn1[C@H]1C[C@H](O)[C@@H](CO)O1	label 1
CCCCSc1nc(-c2ccccc2)nn1[C@@H]1O[C@H](CO)[C@@H](O)[C@H]1O	label 1
O=C(CSc1nc(-c2ccccc2)nn1[C@H]1C[C@H](O)[C@@H](CO)O1)c1ccccc1	label 1

###

- procedureText: Cytotoxicity, trypan blue exclusion method
- testParameters: African green monkey, Vero E6 cells, CC50, Vero E6 cells, 72 h, trypan blue
CC50 at 72 h by entry:

compound	resultUnits	modifierSign	CC50 at 72 h
O=C(CSc1nc(-c2ccccc2)nn1[C@H]1C[C@H](O)[C@@H](CO)O1)c1ccccc1 [Compound 11]	µM	=	244
CCCCSc1nc(-c2ccccc2)nn1[C@H]1C[C@H](O)[C@@H](CO)O1 [Compound 13]	µM	=	364
O=C(CSc1nnc[nH]1)c1ccccc1 [Compound 5, 3-Phenacylthio-1,2,4-triazole]	µM	=	3350
CCCCSc1n[nH]c(-c2ccccc2)n1 [Compound 7, 3-Butylthio-5-phenyl-1,2,4-triazole]	µM	=	91.1
O=C(CSc1ncn([C@H]2C[C@H](O)[C@@H](CO)O2)n1)c1ccccc1 [Compound 9]	µM	=	920
O=C(CSc1nc(-c2ccccc2)nn1[C@@H]1O[C@H](CO)[C@@H](O)[C@H]1O)c1ccccc1 [Compound 10]	µM	=	480
O=C(CSc1ncn([C@@H]2O[C@H](CO)[C@@H](O)[C@H]2O)n1)c1ccccc1 [Compound 8]	µM	>	3030
CCCCSc1nc(-c2ccccc2)nn1[C@@H]1O[C@H](CO)[C@@H](O)[C@H]1O [Compound 12]	µM	=	657

###

- Tested on: HSV-1/L2/R^ACV
- procedureText: microbe, parasite or virus in culture
- testParameters: Strain HSV-1/L2/R^ACV
The label Criterion met is reserved for SI (ratio of CC50 to IC50) strictly under 4; Criterion not met covers values equal to or above it.

smilesEntry	assignedLabel
CCCCSc1nc(-c2ccccc2)nn1[C@H]1C[C@H](O)[C@@H](CO)O1	Criterion not met
O=C(CSc1nc(-c2ccccc2)nn1[C@@H]1O[C@H](CO)[C@@H](O)[C@H]1O)c1ccccc1	Criterion met
O=C(CSc1ncn([C@@H]2O[C@H](CO)[C@@H](O)[C@H]2O)n1)c1ccccc1	Criterion not met
O=C(CSc1nc(-c2ccccc2)nn1[C@H]1C[C@H](O)[C@@H](CO)O1)c1ccccc1	Criterion met
O=C(CSc1nnc[nH]1)c1ccccc1	Criterion not met
O=C(CSc1ncn([C@H]2C[C@H](O)[C@@H](CO)O2)n1)c1ccccc1	Criterion met
CCCCSc1n[nH]c(-c2ccccc2)n1	Criterion met
